target: PADI4 (Homo sapiens, UniProt Q9UM07); construct: His6; made in house; experiment: COLDER inhibition assay, BAEE substrate, with or without 1 h preincubation; format: biochemical; settings: COLDER, no preincubation of peptide and PADI4, 10 mM CaCl2; read-out: IC50 Values 0 h preincubation
Sequence (Q9UM07 whole entry): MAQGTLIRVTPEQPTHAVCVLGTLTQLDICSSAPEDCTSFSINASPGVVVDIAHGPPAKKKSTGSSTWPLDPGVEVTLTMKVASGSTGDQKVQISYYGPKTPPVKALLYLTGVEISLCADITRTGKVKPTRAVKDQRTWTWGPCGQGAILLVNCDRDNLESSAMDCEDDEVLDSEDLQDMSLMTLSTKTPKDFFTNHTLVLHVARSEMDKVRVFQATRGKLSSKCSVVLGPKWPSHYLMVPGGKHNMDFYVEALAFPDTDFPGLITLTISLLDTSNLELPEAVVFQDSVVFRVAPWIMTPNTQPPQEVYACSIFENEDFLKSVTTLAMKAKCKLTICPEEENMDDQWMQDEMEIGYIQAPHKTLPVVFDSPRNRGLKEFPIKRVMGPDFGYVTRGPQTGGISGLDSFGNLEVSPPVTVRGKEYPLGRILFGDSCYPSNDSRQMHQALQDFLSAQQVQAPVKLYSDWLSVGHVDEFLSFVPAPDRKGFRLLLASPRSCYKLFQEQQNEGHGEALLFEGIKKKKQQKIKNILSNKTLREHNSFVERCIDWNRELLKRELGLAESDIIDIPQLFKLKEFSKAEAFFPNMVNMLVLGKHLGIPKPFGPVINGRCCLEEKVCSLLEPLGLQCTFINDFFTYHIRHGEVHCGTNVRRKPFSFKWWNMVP
Where a SMILES comes first, the peptide text is derived from it. Bridges are numbered along the chain shown (N, C = ends). [ ]: non-standard residue; d: D form. Orn(fluoroacetimidoyl) = N=C(CF)NCCC[C@H](N)C(=O)O
reportedProperty: pIC50
Answer as the number alone; pIC50 is minus log10 of concentration in mol/L.

Measured pIC50 for this entry N=C(N)NCCC[C@@H]1NC(=O)[C@H](CCCNC(=N)CF)NC(=O)[C@H](CC(=O)O)NC(=O)[C@H](Cc2ccc(O)cc2)NC(=O)[C@H](CCCCN)NC(=O)[C@H](CO)NC(=O)[C@@H](Cc2ccc(O)cc2)NC(=O)CSC[C@@H](C(=O)NCC(N)=O)NC(=O)[C@H](CC(=O)O)NC(=O)[C@H](CCCNC(=N)N)NC(=O)[C@@H]2CCCN2C(=O)[C@H](CO)NC1=O [cP4_4, ySKYD(2)RSPRDCG] ({CH2CO}-[dY]SKYD[Orn(fluoroacetimidoyl)]RSPRDCG-NH2; thioether N-12) on PADI4 (Homo sapiens, UniProt Q9UM07): 5.36

====

target: PADI4 (Homo sapiens, UniProt Q9UM07); construct: His6; made in house; assay: Incubation time-dependent COLDER assay IC50(t), Krippendorff fit; assay type: biochemical
Where a SMILES comes first, the peptide text is derived from it. Bridges are numbered along the chain shown (N, C = ends). [ ]: non-standard residue; d: D form. Orn(fluoroacetimidoyl) = N=C(CF)NCCC[C@H](N)C(=O)O
reportedProperty: kinact/KI (M⁻¹ s⁻¹)
Express the result in M⁻¹ s⁻¹ but write the number alone.

Looking up CC(C)[C@@H]1NC(=O)[C@@H](Cc2ccc(O)cc2)NC(=O)CSC[C@@H](C(=O)NCC(N)=O)NC(=O)[C@H](Cc2ccc(O)cc2)NC(=O)[C@H](CCCCN)NC(=O)[C@H](Cc2c[nH]c3ccccc23)NC(=O)[C@H](CCC(=O)O)NC(=O)[C@H](CCCCN)NC(=O)[C@H](CCCNC(=N)CF)NC(=O)[C@H](CO)NC(=O)[C@H](Cc2ccc(O)cc2)NC1=O [cP4_7, yVYS(2)KEWKYCG] ({CH2CO}-[dY]VYS[Orn(fluoroacetimidoyl)]KEWKYCG-NH2; thioether N-11) , I see its kinact/KI listed as 300

====

biological target: PADI4 (Homo sapiens); construct: His6; made in house; test: Surface plasmon resonance (SPR), single cycle kinetics; type: binding; conditions: two-state reaction model, k+2; read-out: SPR kinact (converted)
*1 amine or outer side, *2 acyl side, *3 side chain or, on linkers, in order; H or OH if unused. Where a SMILES comes first, the peptide text is derived from it. Bridges are numbered along the chain shown (N, C = ends). [ ]: non-standard residue; d: D form. Orn(fluoroacetimidoyl) = N=C(CF)NCCC[C@H](N)C(=O)O; X1 = N=C(CCl)NCCC[C@H](N[*:1])C(=O)[*:2]
Class (required): determined from kinact; valid ranges are low end = under 0.002 s⁻¹, middle = from 0.002 s⁻¹ up to 0.004 s⁻¹, high end = 0.004 s⁻¹ and over

These recorded examples may help you get a feel for the data.
compound	label
CC[C@H](C)[C@@H]1NC(=O)[C@@H](Cc2ccc(O)cc2)NC(=O)CSC[C@@H](C(=O)NCC(N)=O)NC(=O)[C@H]([C@@H](C)O)NC(=O)[C@H](C(C)C)NC(=O)[C@H](CC(=O)O)NC(=O)[C@H](CCCNC(=N)CF)NC(=O)[C@H](CC(C)C)NC(=O)[C@H](CC(=O)O)NC(=O)[C@H](Cc2c[nH]c3ccccc23)NC1=O [cP4_13] ({CH2CO}-[dY]IWDL[Orn(fluoroacetimidoyl)]DVTCG-NH2; thioether N-10)	middle
CC[C@H](C)[C@@H]1NC(=O)[C@H](CCCNC(=N)N)NC(=O)[C@H](Cc2ccc(O)cc2)NC(=O)[C@H](CCCNC(=N)N)NC(=O)[C@H](CCC(=O)O)NC(=O)[C@H](CCCNC(=N)CF)NC(=O)[C@H](CC(N)=O)NC(=O)[C@H](CC(C)C)NC(=O)[C@@H](Cc2ccc(O)cc2)NC(=O)CSC[C@@H](C(=O)NCC(N)=O)NC(=O)[C@H](CO)NC1=O [cP4_18] ({CH2CO}-[dY]LN[Orn(fluoroacetimidoyl)]ERYRISCG-NH2; thioether N-11)	middle
CC(C)C[C@@H]1NC(=O)[C@H](CCCCN)NC(=O)[C@H](CO)NC(=O)[C@H](CO)NC(=O)[C@H](Cc2ccc(O)cc2)NC(=O)[C@H](Cc2c[nH]cn2)NC(=O)[C@H](CCCNC(=N)CF)NC(=O)[C@H](CC(=O)O)NC(=O)[C@H](CC(C)C)NC(=O)[C@@H](Cc2ccc(O)cc2)NC(=O)CSC[C@@H](C(=O)NCC(N)=O)NC(=O)[C@H](Cc2ccc(O)cc2)NC1=O [cP4_15, yLD(2)HYSSKLYCG] ({CH2CO}-[dY]LD[Orn(fluoroacetimidoyl)]HYSSKLYCG-NH2; thioether N-12)	high end
N=C(N)NCCC[C@@H]1NC(=O)[C@H](CCCCN)NC(=O)[C@H](CC(N)=O)NC(=O)[C@H](Cc2ccccc2)NC(=O)[C@H](CC(=O)O)NC(=O)[C@H](Cc2c[nH]c3ccccc23)NC(=O)[C@H](CC(N)=O)NC(=O)[C@H](CCCNC(=N)CF)NC(=O)[C@H](Cc2ccc(O)cc2)NC(=O)[C@H](Cc2c[nH]c3ccccc23)NC(=O)[C@@H](Cc2ccc(O)cc2)NC(=O)CSC[C@@H](C(=O)NCC(N)=O)NC1=O [cP4_10, yWY(2)NWDFNKRCG] ({CH2CO}-[dY]WY[Orn(fluoroacetimidoyl)]NWDFNKRCG-NH2; thioether N-12)	middle
CC(C)[C@@H]1NC(=O)[C@@H](Cc2ccc(O)cc2)NC(=O)CSC[C@@H](C(=O)NCC(N)=O)NC(=O)[C@H](Cc2ccc(O)cc2)NC(=O)[C@H](CCCCN)NC(=O)[C@H](Cc2c[nH]c3ccccc23)NC(=O)[C@H](CCC(=O)O)NC(=O)[C@H](CCCCN)NC(=O)[C@H](CCCNC(=N)CF)NC(=O)[C@H](CO)NC(=O)[C@H](Cc2ccc(O)cc2)NC1=O [cP4_7, yVYS(2)KEWKYCG] ({CH2CO}-[dY]VYS[Orn(fluoroacetimidoyl)]KEWKYCG-NH2; thioether N-11)	high end

QUERY: Which category fits this record: N=C(N)NCCC[C@@H]1NC(=O)[C@H](CCCNC(=N)CF)NC(=O)[C@H](CC(=O)O)NC(=O)[C@H](Cc2ccc(O)cc2)NC(=O)[C@H](CCCCN)NC(=O)[C@H](CO)NC(=O)[C@@H](Cc2ccc(O)cc2)NC(=O)CSC[C@@H](C(=O)NCC(N)=O)NC(=O)[C@H](CC(=O)O)NC(=O)[C@H](CCCNC(=N)N)NC(=O)[C@@H]2CCCN2C(=O)[C@H](CO)NC1=O [cP4_4, ySKYD(2)RSPRDCG] ({CH2CO}-[dY]SKYD[Orn(fluoroacetimidoyl)]RSPRDCG-NH2; thioether N-12)
RESULT: low end

QUERY: Which category fits this record: N=C(N)NCCC[C@@H]1NC(=O)[C@H](Cc2ccc(O)cc2)NC(=O)[C@H](Cc2c[nH]cn2)NC(=O)[C@H](CCCNC(=N)CF)NC(=O)[C@H](CC(=O)O)NC(=O)[C@H](CCCNC(=N)N)NC(=O)[C@@H](Cc2ccc(O)cc2)NC(=O)CSC[C@@H](C(=O)NCC(N)=O)NC(=O)[C@H](Cc2ccc(O)cc2)NC(=O)[C@H](CCCCN)NC(=O)[C@@H]2CCCN2C(=O)[C@H](Cc2c[nH]cn2)NC1=O [PADI4_3_H4(2), yRD(2)HYRHPKYCG] ({CH2CO}-[dY]RD[Orn(fluoroacetimidoyl)]HYRHPKYCG-NH2; thioether N-12)
RESULT: low end

QUERY: Which category fits this record: CC[C@H](C)[C@H](NC(=O)[C@H](Cc1c[nH]c2ccccc12)NC(=O)[C@H](CCC(=O)O)NC(=O)[C@@H]1CSCC(=O)N[C@H](Cc2ccc(O)cc2)C(=O)N[C@@H](C(C)C)C(=O)N[C@@H](Cc2ccc(O)cc2)C(=O)N[C@@H](CCCNC(=N)CF)C(=O)N[C@@H](CC(=O)O)C(=O)N1)C(=O)N[C@@H](CC(N)=O)C(=O)N[C@@H](CCCNC(=N)N)C(=O)N[C@@H](C)C(=O)NCC(N)=O [cP4_165, yVY(2)DCEWINRAG] ({CH2CO}-[dY]VY[Orn(fluoroacetimidoyl)]DCEWINRAG-NH2; thioether N-6)
RESULT: low end

QUERY: Which category fits this record: N=C(N)NCCC[C@@H]1NC(=O)[C@H](CCCNC(=N)CCl)NC(=O)[C@H](CC(=O)O)NC(=O)[C@H](Cc2ccc(O)cc2)NC(=O)[C@H](CCCCN)NC(=O)[C@H](CO)NC(=O)[C@@H](Cc2ccc(O)cc2)NC(=O)CSC[C@@H](C(=O)NCC(N)=O)NC(=O)[C@H](CC(=O)O)NC(=O)[C@H](CCCNC(=N)N)NC(=O)[C@@H]2CCCN2C(=O)[C@H](CO)NC1=O [Cl4] ({CH2CO}-[dY]SKYD[X1]RSPRDCG-NH2; thioether N-12)
RESULT: high end
